Target: T1, AS154 VHH (camel-derived)
T1 construct: One of the 10 different camel-derived nanobodies; not shown: His tag (VHH-His)
T1 sequence (VHH, as listed by the source): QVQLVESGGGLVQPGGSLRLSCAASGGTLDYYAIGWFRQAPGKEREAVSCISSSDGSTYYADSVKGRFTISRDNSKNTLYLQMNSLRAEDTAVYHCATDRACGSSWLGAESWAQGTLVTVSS
Test: indirect ELISA, VHH coated
Quantity Name: binding result

>>> measured_value("R166.H9 (antibody, V domains shown, Rabbit monoclonal; also called clone R166.H9) VH: QSLEESGGRLVTPGTPLTLTCTASGFSLNNYNMIWVRQAPGEGLEWIGMIGDGDDAAWYASWAKGRFTISKTSTTVDLEVTSLTTEDTAIYFCARYLSFTRLDLWGQGTLVTVSS VL: AVLTQTPSPVSAAVGGTVTINCQSSQSVYHNNWLAWYQQKPGQPPKLLIYGAATLASGVPSRFKGSGSGTQFTFTITDVQCDDVGTYYCAGVYNDDSENAFGGGTEVVVKG")
"binds"
>>> measured_value("R166.H10 (antibody, V domains shown, Rabbit monoclonal; also called clone R166.H10) VH: QSLEESGGRLVTPGTPLTLTCTASGFSLSSYWMSWVRQAPGKGLEYIGIISGSGSTYYATWAKGRFTISKTSSTTVDLKITSPTTEDTATYFCARGNPHYSFGFNIWGPGTLVTVSL VL: DIVMTQTPASVSEPVGGTVTINCQASESIYSWLSWYQQKPGQPPKLLIYSASYLASGVPSQFRGSGSGTEYTLTISDLECADAATYYCQYNYDSGDGITNGFGGGTEVVVKG")
"binds"
>>> measured_value("R166.G10 (antibody, V domains shown, Rabbit monoclonal; also called clone R166.G10) VH: QSVEESGGRLVTPGTPLTLTCTVSGFSLSSSAVSWVRQAPGKGLEYIGIIGSGGSTYYASWVNGRFTISKTSTTVDLKMTSLTAADTATYFCARYGGNSGGYDSFNLWGQGTLVTVSS VL: DVVMTQTPASVSEPVGGTVTIKCQASQSIYSHLSWYQQKPGQPPKLLIHGASTLASGASSRFKASGSGTEFTLTISDLECADAATYYCQCTAGTSIYGNAFGGGTEVVVRG")
"binds"
